Source of measurements: PubChem BioAssay AID1259310

- system: F-box/WD repeat-containing protein 7 (Homo sapiens)
- experiment.notes: FBW7 E3 ligase activators, primary screen, biochemical, AlphaScreen, human (AID 1259310);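 further: purified mutant Fbw7 with reduced substrate affinity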
- condition: AlphaScreen FBW7–phospho-cyclin E peptide binding, activator screen; at 26.1 µM; active compounds read high
About 850 (0.13%) of roughly 650,000 compounds were called active. This excerpt belongs to a sample that is enriched for actives.
Assignment: determine reported normalized activity (activation) for the given compounds.
Numbers only, in %.

Solved entries (count: 6):
O=C(Nc1ccc(I)cc1)OCCCc1ccccc1 ... 0.21
CCCC(c1nnnn1C(C)(C)C)N1CCN(Cc2ccccc2)CC1 (centres undefined) ... 0.01
CCC(c1nnnn1C1CCCC1)N1CCN(C(=O)c2ccco2)CC1 (centres undefined) ... -0.16
CCCCNc1ncc2c(n1)c(=O)c(C#N)c1[nH]c3ccccc3c(=O)n12 ... 2.15
COc1ccccc1C1N(Cc2ccccc2)CCN1Cc1ccccc1 ... 0.1
CN(C)CCCNc1ncc2c(n1)c(=O)c(C#N)c1[nH]c3ccccc3c(=O)n12 ... -0.01

# return normalized activity (activation) for each item in the list
1. COc1ccc2c(c1)c(=O)c1ccccc1n2CC(=O)Nc1ccc(F)cc1
2. COc1ccc(-c2cc(NCCOc3ccccc3)nc(N)n2)cc1

1. 0
2. 0.12

# return normalized activity (activation) for each item in the list
1. COc1cccc(OC)c1C(=O)OCC(=O)NC1CCCCC1C (centres undefined)
2. O=C1CC(c2noc(-c3ccco3)n2)CN1c1ccccc1 (centres undefined)
3. CCC(c1nnnn1CCC(C)C)N1CCN(c2ccccc2)CC1 (centres undefined)
4. Cc1ccc(N=c2scc(C)n2CCCO)cc1

1: -0.19; 2: -0.17; 3: 0.24; 4: -0.38

----------
- system: F-box/WD repeat-containing protein 7 (Homo sapiens) (UniProt Q969H0)
- Sequence (Q969H0 whole entry, looked up): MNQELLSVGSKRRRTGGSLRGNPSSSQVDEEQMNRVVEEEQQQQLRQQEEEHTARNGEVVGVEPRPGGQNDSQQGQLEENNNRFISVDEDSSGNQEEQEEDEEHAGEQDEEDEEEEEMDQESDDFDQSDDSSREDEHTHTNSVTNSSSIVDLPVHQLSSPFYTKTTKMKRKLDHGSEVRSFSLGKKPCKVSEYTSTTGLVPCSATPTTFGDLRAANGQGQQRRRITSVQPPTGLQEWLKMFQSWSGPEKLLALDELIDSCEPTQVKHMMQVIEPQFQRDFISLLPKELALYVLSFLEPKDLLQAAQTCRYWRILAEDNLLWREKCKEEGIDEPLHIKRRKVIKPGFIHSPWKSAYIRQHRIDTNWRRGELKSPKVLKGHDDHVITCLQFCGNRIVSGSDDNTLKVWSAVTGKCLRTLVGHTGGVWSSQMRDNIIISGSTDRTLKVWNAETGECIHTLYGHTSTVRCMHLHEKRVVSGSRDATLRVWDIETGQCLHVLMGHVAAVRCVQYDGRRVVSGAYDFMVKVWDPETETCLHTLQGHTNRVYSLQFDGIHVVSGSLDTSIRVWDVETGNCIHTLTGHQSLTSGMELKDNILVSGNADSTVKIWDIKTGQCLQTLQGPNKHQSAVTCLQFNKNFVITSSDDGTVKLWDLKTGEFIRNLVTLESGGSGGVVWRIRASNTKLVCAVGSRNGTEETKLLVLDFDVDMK
- experiment.notes: FBW7 E3 ligase activators, primary screen, biochemical, AlphaScreen, human (AID 1259310);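 further: purified mutant Fbw7 with reduced substrate affinity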
- condition: AlphaScreen FBW7–phospho-cyclin E peptide binding, activator screen; at 26.1 µM
Among all 650,000 compounds or so, about 850 (0.13%) were called active. No stated cut-off is given here; in the data, active means normalized activity above about 1.9%; inactive means the rest. The entries come from a sample that favours actives as a whole.
Hi! Could you answer with just one of these? active, inactive

These recorded examples may help you get a feel for the data.
Cc1cc(C(=O)NCc2nnc3n2CCN(Cc2ccccc2)CC3)c(C)o1 ... inactive
CCn1c(N2CCC(C(=O)NC3CCCCC3)CC2)nc2ccccc21 ... inactive
O=C(CC(=O)c1ccccc1O)c1ccccc1 ... inactive
O=C(COC(=O)c1ccccc1F)NCc1ccco1 ... inactive

Outcome? `COc1cccc(NC(=O)Nc2cc(OC)cc(OC)c2)c1`
inactive

Outcome? `Cc1ccc2nc(NC(=O)c3cc(-c4ccc(Cl)s4)nc4ccccc34)sc2c1`
inactive

Outcome? `COCc1cc(C)nc(OCC(=O)c2ccccc2)c1C#N`
inactive

Outcome? `COc1ccc(N=C2CCC(O)=C2C(C)=O)cc1`
inactive

Outcome? `CC[N+](C)(CC)CCNC(=O)c1c(O)c2ccccc2[nH]c1=O`
inactive

Outcome? `COc1ccc(NC(=O)c2sc3nc(-c4cccc([N+](=O)[O-])c4)cn3c2C)cc1`
inactive

Outcome? `C[N+](C)(C)CCNC(=O)c1c(O)c2c([nH]c1=O)CCCC2`
inactive

Outcome? CCOC(=O)C1=C(C)N=c2s/c(=C\c3ccc(OCc4ccc([N+](=O)[O-])cc4)c(OC)c3)c(=O)n2C1c1ccc2c(c1)OCO2 (configuration not stated)
inactive

Outcome? `CC[N+](C)(CC)CCNC(=O)c1c(O)c2c([nH]c1=O)CCCC2`
active

Outcome? CCCCSc1nnc2c(n1)OC(c1ccc(N(C)C)cc1)Nc1ccccc1-2 (configuration not stated)
inactive

----------
Assignment: determine reported normalized activity (activation) for the given molecules.
- system: F-box/WD repeat-containing protein 7 (Homo sapiens)
- experiment.notes: FBW7 E3 ligase activators, primary screen, biochemical, AlphaScreen, human (AID 1259310);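 further: purified mutant Fbw7 with reduced substrate affinity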
- condition: AlphaScreen FBW7–phospho-cyclin E peptide binding, activator screen; at 26.1 µM; active compounds read high
About 850 (0.13%) of roughly 650,000 compounds were called active. The list comes from a sample in which actives are over-represented; it also holds close analogues and randomly drawn compounds.
Answers are plain numbers, in %.

COC(=O)CSC1=C(C#N)C(c2ccccc2Cl)C(C(=O)Nc2ccccc2OC)=C(C)N1 (configuration not stated) ... -0.06
CCSCCOC(=O)C1=C(C)NC2=C(C(=O)CC(c3ccccc3)C2)C1c1ccc(OC)cc1OC (configuration not stated) ... 2.28
C#CCN(C)C(=O)c1c(C(F)(F)F)nc2c(OC)cccn12 ... 1.94

# return normalized activity (activation) for each item in the list
1. O=S(=O)(NC1CCCCC1Sc1ncn[nH]1)c1ccc(Cl)cc1 (configuration not stated)
2. O=C(CSc1ncc(-c2ccccc2)[nH]1)Nc1ccc(Br)cc1
3. Cc1cc(C(=O)C(=O)c2nccn2C)c(C)n1C
4. CC(C)OCCCNC(=O)Nc1cccc(Cl)c1
5. O=C(c1cnsc1)N1CCC(c2[nH]ncc2-c2ccncc2)CC1
6. CCSCCOC(=O)C1=C(C)NC2=C(C(=O)CC(c3ccccc3)C2)C1c1ccccc1 (configuration not stated)

1. 0
2. -0.02
3. 0.04
4. 0.02
5. 2.18
6. 0.61

# return normalized activity (activation) for each item in the list
1. C=CCN(C)C(=O)c1c(C(F)(F)F)nc2c(OC)cccn12
2. Cc1ccc2nc(SCC(=O)Nc3ccccc3C(N)=O)[nH]c2c1
3. O=C(c1cnsc1)N1CCCC(c2ncncc2-c2ccncc2)C1 (configuration not stated)

1: 0.11; 2: 0.11; 3: 0.35

----------
- system: F-box/WD repeat-containing protein 7 (Homo sapiens) (UniProt Q969H0)
- experiment.notes: FBW7 E3 ligase activators, primary screen, biochemical, AlphaScreen, human (AID 1259310);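 further: purified mutant Fbw7 with reduced substrate affinity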
- condition: AlphaScreen FBW7–phospho-cyclin E peptide binding, activator screen; at 26.1 µM; active compounds read high
About 850 (0.13%) of roughly 650,000 compounds were called active. What follows is part of a selection rich in actives, with near analogues and random picks from the rest.
Assignment: determine reported normalized activity (activation) for the given compounds.
Numbers only, in %.

CCOC(=O)/C(C#N)=C/c1ccc(N2CCCCC2)cc1 ... 1.85
O=C(NCCc1cccnc1)c1ccc2c(c1)CC(c1nc3ccc(-c4cn[nH]c4)cc3c(=O)[nH]1)CO2 (configuration not stated) ... 3.03
C[C@@H](c1ccccc1)n1c(=O)[nH]c2ncc(-c3ccccc3)nc21 ... 0.05
O=C(O)CCCN1C(=O)C(=O)/C(=C(\O)c2ccccc2)C1c1cccc(F)c1 (configuration not stated) ... -0.31
COCCCN1C(=O)C2C(C(=O)Nc3cccc(C)c3)C3C=CC2(O3)C1C(=O)NC1CCCC(C)C1C (configuration not stated) ... 0.2

# return normalized activity (activation) for each item in the list
1. CN(C)CCN(C)c1nc(C2COc3ccc(C(N)=O)cc3C2)nc2ccc(-c3cn[nH]c3)cc12 (configuration not stated)
2. O=C1C(=O)N(c2nc3ccccc3s2)C(c2ccc(O)cc2)/C1=C(\O)c1ccc(Cl)cc1 (configuration not stated)
3. CCOC(=O)N1CCC(NC(=O)CC2C(=O)NCCN2Cc2ccoc2)CC1 (configuration not stated)
4. Oc1ccccc1-c1nc(CI)no1
5. COCCNC(=O)/C(C#N)=C/c1ccc(N2CCOCC2)cc1
6. O=C(Nc1ccccc1[N+](=O)[O-])c1cc(S(=O)(=O)Nc2cccc(F)c2)ccc1Cl

1. 1.23
2. -0.15
3. 0.27
4. 0.03
5. 0.46
6. -0.02

# return normalized activity (activation) for each item in the list
1. Cc1cc(=O)oc2cc(OCC(=O)N/N=C/c3ccc4c(c3)OCO4)ccc12
2. CCOc1ccc2nc(NC(=O)c3cccc(C(=O)OC)n3)sc2c1
3. O=C(CSc1nnc(Nc2ccccc2)s1)c1ccc(F)cc1
4. O=C(Nc1ccc(C(=O)Nc2nccs2)cc1)c1ccc2c(c1)C(=O)N(c1ccccc1-c1ccccc1)C2=O
5. COc1cccc(-c2nc(C3CCCN(C(=O)CC(C)CC(=O)O)C3)n3ccccc23)c1 (configuration not stated)
6. COc1ccc(C2(O)CC(C(F)(F)F)=NN2C(=O)CCc2ccccc2)cc1 (configuration not stated)

[-0.03, -0.02, -0.08, -0.08, 0.94, 0.67]

----------
- system: F-box/WD repeat-containing protein 7 (Homo sapiens)
- experiment.notes: FBW7 E3 ligase activators, primary screen, biochemical, AlphaScreen, human (AID 1259310);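 further: purified mutant Fbw7 with reduced substrate affinity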
- condition: AlphaScreen FBW7–phospho-cyclin E peptide binding, activator screen; at 26.1 µM
Hit rate of the full screen: of about 650,000 compounds, about 850 (0.13%) were called active. Rule as the data show it: active = normalized activity above about 1.9%; inactive = the rest. Many of the other results were omitted from the sample, so actives are more common in it than they were.
Hi! Could you answer with just one of these? active, inactive

These recorded examples may help you get a feel for the data.
CCC(c1nnnn1CCC(C)C)N1CCN(C(=O)c2ccco2)CC1 (configuration not stated) ... active
O=C(CN1C(=O)c2cccc([N+](=O)[O-])c2C1=O)OCC(=O)c1ccc(Cl)cc1 ... inactive
CC(=O)Nc1ccc(C(=O)NNC(=O)C(C)Oc2ccc(Cl)cc2Cl)cc1 (configuration not stated) ... inactive

Outcome? COc1ccc(C(c2nnnn2C(C)(C)C)N2CCN(c3ccccc3)CC2)cc1 (configuration not stated)
inactive

Outcome? `COc1ccc(C(=O)NCCC(=O)NC2CCCC2)cc1OC`
inactive

Outcome? O=C(Cc1ccccn1)N1CCCC(c2nc(N3CCOCC3)ncc2-c2ccncc2)C1 (configuration not stated)
inactive

Outcome? `Cc1nc2c(C(=O)N3CCCC3)cnn2c(C)c1Cc1ccccc1Cl`
inactive
